# subject of test: Dual luciferase reporter (DLR) with N(ε)-allyl-oxycarbonyl-lysine at K529 of the Firefly enzyme
# Sequence (chain, as listed by the source): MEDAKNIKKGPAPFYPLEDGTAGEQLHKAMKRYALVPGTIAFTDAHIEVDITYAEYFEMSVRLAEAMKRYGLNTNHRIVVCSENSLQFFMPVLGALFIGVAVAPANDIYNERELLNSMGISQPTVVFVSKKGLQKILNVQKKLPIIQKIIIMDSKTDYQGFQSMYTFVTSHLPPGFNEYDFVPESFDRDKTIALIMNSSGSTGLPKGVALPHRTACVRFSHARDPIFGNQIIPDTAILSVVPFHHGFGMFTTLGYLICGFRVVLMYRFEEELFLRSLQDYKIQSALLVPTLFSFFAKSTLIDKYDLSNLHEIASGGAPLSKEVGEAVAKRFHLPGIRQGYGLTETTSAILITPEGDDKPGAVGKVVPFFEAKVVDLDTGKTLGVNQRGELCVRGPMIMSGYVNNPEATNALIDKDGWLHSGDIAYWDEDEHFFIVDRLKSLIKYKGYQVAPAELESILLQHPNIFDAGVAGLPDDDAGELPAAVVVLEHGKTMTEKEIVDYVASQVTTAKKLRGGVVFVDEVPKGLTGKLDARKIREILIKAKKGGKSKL
Reported DLR activity [rel. to wild-type] (rel. to wild-type) by item:
measure name: DLR activity [rel. to wild-type] (rel. to wild-type)

protein	quantitative result
Debocylase-1 (protein) KPRVLVLTGAGISAESGIRTFRAADGLWEEHRVEDVATPEGFDRDPELVQAFYNARRRQLQQPEIQPNAAHLALAKLQDALGDRFLLVTQNVDNLHERAGNTNVIHMHGELLKVRCSQSGQVLDWTGDVTPEDKCHCCQFPAPLRPHLVWFGEMPLGMDEIYMALSMADIFIAIGTSGHVYPAAGFVHEAKLHGAHTVELNLEPSQVGNEFAEKYYGPASQVVPEFVEKLLKGLKAGSIA	8.35
Decrotonylase-1 (protein) KPRVLVLTGAGISAESGIRTFRAADGLWEEHRVEDVRTPEGFDRDPELVQAFGNATRRQLQQPEIQPNAAHLALAKLQDALGDRFLLVTQNRDNLHERAGNTNVIHMHGELLKVRCSQSGQVLDWTGDVTPEDKCHCCQFPAPLRPHLVWFGEMPLGMDEIYMALSMADIFIAIGTSGHVYPAAGFVHEAKLHGAHTVELNLEPSQVGNEFAEKYYGPASQVVPEFVEKLLKGLKAGSIA	0.02
Dealocase-2 (protein) KPRVLVLTGAGISAESGIRTFRAADGLWEEHRVEDVGTPEGFDRDPELVQAFYNAGRRQLQQPEIQPNAAHLALAKLQDALGDRFLLVTQNVDNLHERAGNTNVIHMHGELLKVRCSQSGQVLDWTGDVTPEDKCHCCQFPAPLRPHVVWFGEMPLGMDEIYMALSMADIFIAIGTSGHVYPAAGFVHEAKLHGAHTVELNLEPSQVGNEFAEKYYGPASQVVPEFVEKLLKGLKAGSIA	10.2
Dealocase-1 (protein) KPRVLVLTGAGISAESGIRTFRAADGLWEEHRVEDVSTPEGFDRDPELVQAFWNAWRRQLQQPEIQPNAAHLALAKLQDALGDRFLLVTQNVDNLHERAGNTNVIHMHGELLKVRCSQSGQVLDWTGDVTPEDKCHCCQFPAPLRPHVVWFGEMPLGMDEIYMALSMADIFIAIGTSGHVYPAAGFVHEAKLHGAHTVELNLEPSQVGNEFAEKYYGPASQVVPEFVEKLLKGLKAGSIA	10.8
Dealocase-3 (protein) KPRVLVLTGAGISAESGIRTFRAADGLWEEHRVEDVATPEGFDRDPELVQAFYNARRRQLQQPEIQPNAAHLALAKLQDALGDRFLLVTQNSDNLHERAGNTNVIHMHGELLKVRCSQSGQVLDWTGDVTPEDKCHCCQFPAPLRPHLVWFGEMPLGMDEIYMALSMADIFIAIGTSGHVYPAAGFVHEAKLHGAHTVELNLEPSQVGNEFAEKYYGPASQVVPEFVEKLLKGLKAGSIA	6
